Test: logP determination by HPLC on a reversed-phase column (C 18), EEC Directive 79/831 Annex V.A8
Type: physicochemical
Conditions: value marked [b]
Description: The stated logP values were determined in accordance with EEC Directive 79/831 Annex V.A8 by HPLC (high performance liquid chromatography) on a reversed-phase column (C 18). Temperature: 43° C.
quantity: logP

// sample CC(=NOCC(C)CON=C(C)c1cccc(CC(C)C)n1)c1cccc(C)n1 (stereo not shown) , its logP was 6.51^[b]

// sample C#Cc1cc(C)nc(C(C)=NOCC(C)CON=C(C)c2cc(C#C)cc(C)n2)c1 (stereo not shown) , its logP was 6.65^[b]

// sample `CC(=NOCCCCCCON=C(C)c1cncc(C)n1)c1cccc(C)n1` , its logP was 4.8^[b]

// sample `C=C(CON=C(C)c1cccc(C)n1)CON=C(C)c1cccc(Cc2ccccc2)n1` , its logP was 5.71^[b]

====

Experiment: logP determination by HPLC on a reversed-phase column (C 18), EEC Directive 79/831 Annex V.A8
Type: physicochemical
Settings: method marked [b] in Table 1
Field: logP. Provide a value for each of the compounds that follow.

// sample C=C(CON=C(C)c1ccc2ccc(C)cc2n1)CON=C(C)c1ccc2ccc(C)cc2n1 [compound 749] , its logP was 7.36^[b]

// sample CC(=NOCC(CON=C(C)c1nc(C)ccc1C)C(C)C)c1nc(C)ccc1C (single isomer, unassigned) [compound 752] , its logP was 2.89^[b]

// sample CCC1=NOC(CON=C(CC)c2ccc(C)cn2)(CON=C(CC)c2cccc(C)n2)C1 (racemic) [compound 607] , its logP was 4.04^[b]

// sample COC(CON=C(C)c1cc(C)cc(C)n1)CON=C(C)c1cc(C)cc(C)n1 (centres unmarked) [Compound 552] , its logP was 1.56^[b]

// sample CC(=NOCC1(CON=C(C)c2ccc(C)c(C)n2)CC1)c1cc(C)cc(C)n1 [Compound 695] , its logP was 2.61^[b]

// sample Cc1cc(C)nc(/C(N)=N/OCc2ccccc2CO/N=C(\N)c2cc(C)cc(C)n2)c1 [compound 724] , its logP was 3.72^[b]

// sample CC(=NOC(=O)N(C)C(=O)ON=C(C)c1ccc(C)c(C)n1)c1ccc(C)c(C)n1 [compound 674] , its logP was 2.79^[b]

// sample CC(=NOCC(C)CON=C(C)c1ccc2cccc(C)c2n1)c1ccc2cccc(C)c2n1 (centres unmarked) [compound 687] , its logP was 7.36^[b]

====

Assay: logP determination by HPLC on a reversed-phase column (C 18), EEC Directive 79/831 Annex V.A8
Assay type: physicochemical
Details: method marker [a] (footnote not shown); isomer A / isomer B / isomer mixture as noted in the cell
quantity: logP

// sample `CC(=NOC(=O)CCC(=O)ON=C(C)c1cccc(C)n1)c1cccc(C)n1` , its logP was 2.40^[a]

// sample `CC(=NOCCCON=C(C)c1cc(C)cc(C)n1)c1cc(C)cc(C)n1` , its logP was 1.65^[a]

// sample CC(=NOCC(C)CON=C(C)c1cccnc1Cl)c1cccnc1Cl (mixture of isomers) , its logP was 3.87^[a]

// sample CC(=NOCC(C)CON=C(C)c1cccc(Cc2ccccc2)n1)c1cccc(Cc2ccccc2)n1 (stereo not drawn) , its logP was 7.36^[a]

// sample CCc1cccc(C(C)=NOCC(C)CON=C(C)c2cccc(CC)n2)n1 (stereo not drawn) , its logP was 6.21^[a]

// sample `C=CCCC(=NOCCCON=C(CCC=C)c1ncccc1C)c1ncccc1C` , its logP was 4.59^[a]

// sample CC(=NOCCCON=C(C)c1ncccc1C)c1ncccc1C (single isomer, unassigned) [compound 84] , its logP was 2.51^[a] (isomer B)

// sample `CC(=NOCCCON=C(C)c1cc(-c2ccccc2)ccn1)c1cc(-c2ccccc2)ccn1` , its logP was 5.74^[a]

// sample CC(=NOCCCON=C(C)c1nc(C)cs1)c1cccc(C)n1 (mixture of isomers) , its logP was 3.35^[a]

// sample CCCC(=NOCCCON=C(CCC)c1ncccc1C)c1ncccc1C (single isomer, unassigned) [compound 99] , its logP was 4.22^[a] (isomer A)

// sample CC(=NOCC(C)(O)CON=C(C)c1ccccn1)c1ccccn1 (stereo not drawn) , its logP was 1.73^[a]

// sample Cc1cccc(C(=NOCC(C)CON=C(c2cccc(C)n2)C(C)C)C(C)C)n1 (stereo not drawn) , its logP was 6.22^a]
